Consider the following compounds; for each one, report its Ratio WT/mutant (H1975).
tested-system: EGFR double mutation L858R/T790M (H1975 cells) (Homo sapiens (Human), UniProt P00533, L858R/T790M)
method-description: Phospho-EGFR signaling immunoblot in H1975 cells
Assay type: cell-based
experimental-context: signaling EC50 WT EGFR / H1975

Check out these entries, answers already filled in.
- compound: "C=CC(=O)Nc1cccc(Nc2nc(Nc3ccc(N4CCN(C(=O)CO)CC4)cc3OC)ncc2C(F)(F)F)c1 [Compound I-6]"
  Ratio WT/mutant (H1975): ">20"
- compound: "C=CC(=O)Nc1cccc(Oc2nc(Nc3ccc(N4CCN(C(=O)OC(C)(C)C)CC4)cc3OC)ncc2Cl)c1 [Compound I-46]"
  Ratio WT/mutant (H1975): ">10"

For each entry beneath this line, provide reported Ratio WT/mutant (H1975).
1. C=CC(=O)Nc1cccc(Nc2nc(Nc3ccc(N4CCCN(C(=O)OC(C)(C)C)CC4)cc3OC)ncc2C(F)(F)F)c1 [Compound I-44]
2. C=CC(=O)Nc1cccc(Oc2nc(Nc3ccc(N4CCN(S(C)(=O)=O)CC4)cc3OC)ncc2C(F)(F)F)c1 [Compound I-22]
3. C=CC(=O)Nc1cccc(Nc2nc(Nc3ccc(N4CCS(=O)(=O)CC4)cc3OC)ncc2C(F)(F)F)c1 [Compound I-49]

Data returned:
1: >5; 2: >35; 3: >20

For each entry beneath this line, provide reported Ratio WT/mutant (H1975).
1. C=CC(=O)Nc1cccc(Oc2nc(Nc3ccc(N4CCN(C(=O)CO)CC4)cc3OC)ncc2C(F)(F)F)c1 [Compound I-11]
2. C=CC(=O)Nc1cccc(Nc2nc(Nc3ccc(N4CCN(C(C)=O)CC4)cc3OC)ncc2Br)c1 [Compound I-40]

Data returned:
1: >15; 2: >1

###

Consider the following compounds; for each one, report its % Tumor inhibition.
System: H1975 tumor
method-description: H1975 tumor in vivo study
experimental-context: female nu/nu mice, H1975 subcutaneous, intraperitoneal 25 mg/kg daily for 21 days, determined at 15 days
Method: H1975 Tumor In Vivo Study Female nu/nu mice were implanted with 1×10^7 H1975 tumor cells in 50% Matrigel subcutaneously (0.2 ml injection volume) in the flank. Tumor measurements were recorded three times per week. Tumors were pair matched when they reached an average size of 100-150 mg. […] Test compound was administered intraperitoneal, 25 mg/kg daily for 21 days. % Tumor inhibition values were determined at 15 days, the time at which the control group reached a maximum tumor volume. […]

- smiles-input: "C=CC(=O)Nc1cccc(Nc2nc(Nc3ccc(N4CCOCC4)cc3OC)ncc2C(F)(F)F)c1"
  % Tumor inhibition: ">66%"
- smiles-input: "C=CC(=O)Nc1cccc(Oc2nc(Nc3ccc(N4CCOCC4)cc3OC)ncc2C(F)(F)F)c1"
  % Tumor inhibition: ">66%"
- smiles-input: "C=CC(=O)Nc1cccc(Nc2nc(Nc3ccc(N4CCN(C(C)=O)CC4)cc3OC)ncc2C(F)(F)F)c1"
  % Tumor inhibition: ">66%"

Data request: Give me measured % Tumor inhibition, please, for this compound: `C=CC(=O)Nc1cccc(Oc2nc(Nc3ccc(N4CCOCC4)cc3OC)ncc2Cl)c1`
Data returned: >33%

###

tested-system: EGFR double mutation L858R/T790M (H1975 cells) (Homo sapiens (Human), UniProt P00533, L858R/T790M)
method-description: Phospho-EGFR signaling immunoblot in H1975 cells
experimental-context: H1975 cells, 1 hr treatment, phospho-EGFR (Y1068)
pEC50: −log10 of the molar value.
readout: pEC50

Check out these entries, answers already filled in.
- smiles-input: "C=CC(=O)Nc1cccc(Nc2nc(Nc3ccc(N4CCN(S(C)(=O)=O)CC4)cc3OC)ncc2Cl)c1"
  pEC50: "< 6.00"
- smiles-input: "C=CC(=O)Nc1cccc(Oc2nc(Nc3ccc(N4CCN(C(=O)OC(C)(C)C)CC4)cc3OC)ncc2Cl)c1"
  pEC50: "6.30 to 7.00"
- smiles-input: "C=CC(=O)Nc1cccc(Nc2nc(Nc3ccc(N4CCOCC4)cc3OC(F)F)ncc2C(F)(F)F)c1"
  pEC50: "7.00 to 8.00"
- smiles-input: "C=CC(=O)Nc1cccc(Oc2nc(Nc3ccc(N4CCOCC4)cc3OC(F)F)ncc2C(F)(F)F)c1"
  pEC50: "7.00 to 8.00"
- smiles-input: "C=CC(=O)Nc1cccc(Nc2nc(Nc3ccc(N4CCN(C(C)=O)[C@H](C(=O)OC)C4)cc3OC)ncc2C(F)(F)F)c1"
  pEC50: "7.00 to 8.00"
- smiles-input: "C=CC(=O)Nc1cccc(Oc2nc(Nc3ccc(N4CCN(S(C)(=O)=O)CC4)cc3OC)ncc2C(F)(F)F)c1"
  pEC50: "6.30 to 7.00"
- smiles-input: "C=CC(=O)Nc1cccc(Nc2nc(Nc3ccc(N4CCCN(C(=O)OC(C)(C)C)CC4)cc3OC)ncc2C(F)(F)F)c1"
  pEC50: "6.00 to 6.30"
- smiles-input: "C=CC(=O)Nc1cccc(Nc2nc(Nc3ccc(N4CCN(C(C)=O)CC4)cc3OC)ncc2Br)c1"
  pEC50: "< 6.00"
- smiles-input: "C=CC(=O)Nc1cccc(Oc2nc(Nc3ccc(N4CCN(S(C)(=O)=O)CC4)cc3OC)ncc2Cl)c1"
  pEC50: "6.30 to 7.00"
- smiles-input: "C=CC(=O)Nc1cccc(Oc2nc(Nc3ccc(N4CCN(C(=O)CO)CC4)cc3OC)ncc2Cl)c1"
  pEC50: "6.00 to 6.30"

For each entry beneath this line, provide reported pEC50.
1. C=CC(=O)Nc1cccc(Nc2nc(Nc3ccc(N4CCN(S(C)(=O)=O)CC4)cc3OC)ncc2C(F)(F)F)c1
2. C=CC(=O)Nc1cccc(Oc2nc(Nc3ccc(N4CCOCC4)cc3OC)ncc2C(F)(F)F)c1
3. C=CC(=O)Nc1cccc(Nc2nc(Nc3ccc(N4CCN(C(=O)CO)CC4)cc3OC)ncc2Cl)c1
4. C=CC(=O)Nc1cccc(Nc2nc(Nc3ccc(N4CCS(=O)(=O)CC4)cc3OC)ncc2C(F)(F)F)c1
5. C=CC(=O)Nc1cccc(Nc2nc(Nc3ccc(N4CCN(C(C)=O)CC4)cc3OC)ncc2Cl)c1

Data returned:
["7.00 to 8.00", "7.00 to 8.00", "< 6.00", "7.00 to 8.00", "< 6.00"]

For each entry beneath this line, provide reported pEC50.
1. C=CC(=O)Nc1cccc(Nc2nc(Nc3ccc(N4CCN(C(=O)CO)CC4)cc3OC)ncc2C(F)(F)F)c1
2. C=CC(=O)Nc1cccc(Nc2nc(Nc3ccc(N4CCN(C(=O)CC)CC4)cc3OC)ncc2C(F)(F)F)c1

Data returned:
["7.00 to 8.00", "> 8.00"]

###

tested-system: WT EGFR (A431 cells) (Homo sapiens (Human), UniProt P00533)
method-description: Phospho-EGFR signaling immunoblot in A431 cells (WT EGFR)
experimental-context: 1 hr treatment, EGF stimulated, phospho-EGFR (Y1068)
pEC50: −log10 of the molar value.
readout: pEC50

- smiles-input: "C=CC(=O)Nc1cccc(Nc2nc(Nc3ccc(N4CCN(C(C)=O)CC4)cc3OC(F)(F)F)ncc2C(F)(F)F)c1"
  readout: "pEC50"
  observed-value: "< 6.00"

For each entry beneath this line, provide reported pEC50.
1. C=CC(=O)Nc1cccc(Oc2nc(Nc3ccc(N4CCOCC4)cc3OC)ncc2C(F)(F)F)c1
2. C=CC(=O)Nc1cccc(Nc2nc(Nc3ccc(N4CCN(C(=O)CO)CC4)cc3OC)ncc2Cl)c1
3. C=CC(=O)Nc1cccc(Oc2nc(Nc3ccc(N4CCN(C(=O)CO)CC4)cc3OC)ncc2Cl)c1
4. C=CC(=O)Nc1cccc(Nc2nc(Nc3ccc(N4CCCN(C(=O)OC(C)(C)C)CC4)cc3OC)ncc2C(F)(F)F)c1
5. C=CC(=O)Nc1cccc(Nc2nc(Nc3ccc(N4CCN(C(=O)C(C)(C)C)CC4)cc3OC)ncc2C(F)(F)F)c1
6. C=CC(=O)Nc1cccc(Oc2nc(Nc3ccc(N4CCN(C(=O)CO)CC4)cc3OC)ncc2C(F)(F)F)c1

Data returned:
1. < 6.00
2. < 6.00
3. < 6.00
4. < 6.00
5. < 6.00
6. < 6.00

###

tested-system: EGFR double mutation L858R/T790M (H1975 cells) (Homo sapiens (Human), UniProt P00533, L858R/T790M)
method-description: Phospho-EGFR signaling immunoblot in H1975 cells
experimental-context: H1975 cells, 1 hr treatment, phospho-EGFR (Y1068)
Consider the following compounds; for each one, report its EC50.

Check out these entries, answers already filled in.
- smiles-input: "C=CC(=O)Nc1cccc(Oc2nc(Nc3ccc(N4CCN(C(=O)CO)CC4)cc3OC)ncc2C(F)(F)F)c1"
  EC50: "100 to 500 nM"
- smiles-input: "C=CC(=O)Nc1cccc(Nc2nc(Nc3ccc(N4CCN(C(=O)C(C)(C)C)CC4)cc3OC)ncc2C(F)(F)F)c1"
  EC50: "100 to 500 nM"
- smiles-input: "C=CC(=O)Nc1cccc(Nc2nc(Nc3ccc(N4CCCN(C(C)=O)CC4)cc3OC)ncc2C(F)(F)F)c1"
  EC50: "100 to 500 nM"
- smiles-input: "C=CC(=O)Nc1cccc(Nc2nc(Nc3ccc(N4CCN(C(C)=O)CC4)cc3OC(F)(F)F)ncc2C(F)(F)F)c1"
  EC50: "10 to 100 nM"
- smiles-input: "C=CC(=O)Nc1cccc(Oc2nc(Nc3ccc(N4CCN(C(=O)NC)CC4)cc3OC)ncc2C(F)(F)F)c1"
  EC50: "100 to 500 nM"

For each entry beneath this line, provide reported EC50.
1. C=CC(=O)Nc1cccc(Oc2nc(Nc3ccc(N4CCOCC4)cc3OC)ncc2Cl)c1
2. C=CC(=O)Nc1cccc(Nc2nc(Nc3ccc(N4CCOCC4)cc3OC)ncc2C(F)(F)F)c1

Data returned:
1. 10 to 100 nM
2. 10 to 100 nM
